system: SK-MEL-28; experiment: NCI tumour cell line growth inhibition, 48 h
Calls of active or inactive are those of the source. No stated cut-off is given here; in the data, active = GI50 up to about 1.1 µM and inactive = higher.
GI50 by entry:

CC(C)CCC[C@@H](C)C1CCC2[C@@H]3CCC4C[C@@H](NS(C)(=O)=O)CC[C@]4(C)C3CC[C@@]21C (stereo not given in full) ... > 100 µM (inactive)
N#CC(C#N)/N=C/c1ccncc1 ... > 100 µM (inactive)
CN(C)/N=C(/CC(O)(C(F)(F)F)C(F)(F)F)c1ccc([N+](=O)[O-])cc1 ... > 100 µM (inactive)
CCOC(=O)[C@@]12NN=N[C@@H]1[C@H]1CO[C@H](c3ccccc3)N1C2=O ... 5.25 µM (inactive)
CC[N+]1(C)CCC(O)(c2ccccc2)C(C(=O)c2ccccc2)C1 (stereo not given) ... 15.2 µM (inactive)
O=c1/c(=C/c2ccc(Cl)cc2Cl)sc2nc3ccccc3n12 ... > 100 µM (inactive)
CCN(CC)CCNC(=O)c1cn2c(ccc3sc4ccccc4c(=O)c32)n1 ... 10.4 µM (inactive)
O=c1c2nc(-c3ccccc3)oc2n(-c2ccccc2)c(=O)n1-c1ccccc1 ... > 100 µM (inactive)
CC1CN(CCO)CCN1c1ccccc1 (stereo not given) ... > 100 µM (inactive)

In: Looking for the measured GI50 of Nc1nc(N)c2ncn(CC3CCC(CO)C3)c2n1 (stereo not given) , can you help?
Out: > 100 µM (inactive)

###

system: NCI-H522; test: NCI tumour cell line growth inhibition, 48 h
Calls of active or inactive are those of the source. Rule as the data show it: active = GI50 up to about 1.1 µM and inactive = higher.
readout_type: GI50

O=C1CSC2(CC(/C=C/c3ccccc3[N+](=O)[O-])=NN2c2cccc(S(=O)(=O)O)c2)N1c1nc2ccccc2s1 (stereo unspecified) ... 11.6 µM (inactive)
CC(=S)NC=C(C(N)=O)C(N)=O ... > 100 µM (inactive)
COC(=O)c1cc(C#N)[nH]c1-c1ccsc1 ... 87.7 µM (inactive)
COc1ccc2cc1Oc1ccc(cc1)C(Sc1ccccc1)CCOC(=O)CC2 (stereo unspecified) ... > 100 µM (inactive)
COc1ccc(OC)c([N+](=O)[O-])c1-c1nc2sccn2c1/C=N/N=C(N)N ... 58.2 µM (inactive)

In: Would you kindly share the measured GI50 for CC1=NC(=Cc2ccc(O)cc2)C(=O)N1n1c(-c2ccccc2)nc2ccccc2c1=O ?
Out: > 100 µM (inactive)

In: Note, next up: O=C(OCCNC(=O)N1CC1)OCCNC(=O)N1CC1
Out: > 10 µM (inactive)

In: What about this compound? CC(=O)N[C@@H](Cc1ccc(O)cn1)C(=O)NCc1cccc(Cl)c1
Out: > 100 µM (inactive)

In: What about this compound? O=C1CCC2(c3ccc(F)cc3)Nc3cc(Cl)ccc3N12 (stereo unspecified)
Out: 48.6 µM (inactive)

In: Then COC(=O)[C@@]12CC3CN(Cc4c1[nH]c1ccccc41)C2CC3=O ?
Out: > 100 µM (inactive)

In: Would you mind doing CC(=O)Nc1ccc(S(=O)(=O)Nc2cnc3ccccc3n2)cc1 as well?
Out: > 100 µM (inactive)

###

test system: K562; assay: NCI tumour cell line growth inhibition, 48 h
Active and inactive are the calls of the source. No stated cut-off is given here; in the data, active = GI50 up to about 1.1 µM and inactive = higher.
readout_type: GI50

Illustrative cases are given below, each with its answer.
COC(=O)CCCC(=O)NC1=C(Nc2ccccc2)C(=O)c2ccccc2C1=O ... 19.2 µM (inactive)
CC1CN(CCO)CCN1c1ccccc1 (stereo unspecified) ... > 100 µM (inactive)
CCOC(=O)C1CCCCN1C(=O)Cc1c[nH]c2ccccc12 (stereo unspecified) ... 68.9 µM (inactive)
COc1c2c(c3ccccc3c1O)C1C=CC2C1 (stereo unspecified) ... 3.85 µM (inactive)

In: Which GI50 value is on record for O=C(c1cc(Cl)ccc1Cl)N1CCN(C(=O)c2cc(Cl)ccc2Cl)CC1 ?
Out: > 100 µM (inactive)

###

// GI50 lookup, one value per entry
tested on: A498; assay: NCI tumour cell line growth inhibition, 48 h
Calls of active or inactive are those of the source. Cut-off read from the data, not from the text of the source: active = GI50 up to about 1.1 µM and inactive = higher.

Some compounds with known GI50 results, for comparison:
COc1ccc(S(=O)(=O)O)cc1-n1nc(C(=O)Nc2ccccc2)n[n+]1-c1cc(S(=O)(=O)[O-])ccc1OC ... > 100 µM (inactive)
CC(C)/C=C1\CCC(CN2CCCC2)C1=O (configuration not stated) ... > 42.3 µM (inactive)
COc1ccc(/N=N/c2c(N)nn(C)c2N)cc1 ... > 100 µM (inactive)
O=C(/N=C(/Nc1ccccc1)SCCS/C(=N\C(=O)c1ccccc1)Nc1ccccc1)c1ccccc1 ... 58.7 µM (inactive)
COc1cc2c(c(O)c1O)C(=O)C1CCC(=O)N1C2c1cccc2ccccc12 (configuration not stated) ... > 50 µM (inactive)

In: Form field: reported GI50 of CCOC(=O)C1=C(C)N(c2ccc(Cl)cc2)C2(O)C=CC(Nc3ccc(Cl)cc3)=C3C(=O)N(c4ccccc4)C(=O)C312 (configuration not stated)
Out: 1.83 µM (inactive)

In: Query CCN(CC)CC(O)C1CCC(c2ccccc2)CC1 (configuration not stated) next
Out: 14.4 µM (inactive)

###

tested on: UACC-62; test: NCI tumour cell line growth inhibition, 48 h
The source made the active and inactive calls. No stated cut-off is given here; in the data, active = GI50 up to about 1.1 µM and inactive = higher.
Response enum: active, inactive

COc1cc(Cc2cnc(N)nc2N)cc(OC)c1OCCCNc1ccc([N+](=O)[O-])cc1 ... inactive
COc1cc(CNc2nc3c(NC(C)=O)cc(C(F)(F)F)cc3nc2-c2ccccc2)cc(OC)c1OC ... inactive

In: Outcome? C=C1C(=O)C[C@H]2C(=C)C(=O)O[C@@H]2C2C1CC[C@@]2(C)O (stereo partly specified)
Out: inactive

In: Next record, please: Cc1[nH]c(=O)[nH]c(=S)c1C(=O)NC(C)(CO)CO
Out: inactive

In: Please answer likewise for N#CC(/C(CCCC(=O)Nc1cccc([N+](=O)[O-])c1)=N/NC(=O)c1cc2ccccc2cc1O)c1ccccc1 (stereo unspecified)
Out: inactive

In: What do you have for COc1ccc(S(=O)(=O)O)cc1-n1nc(C(=O)Nc2ccccc2)n[n+]1-c1cc(S(=O)(=O)[O-])ccc1OC ?
Out: inactive

In: Quick one: CC(=O)NNc1ncc(C(=O)/C=C/c2ccccc2C)s1
Out: inactive

In: And COc1cc(/C=C(\NC(=O)c2ccccc2)c2nc3c(O)nc(S)nc3[nH]2)cc(OC)c1OC ?
Out: inactive

In: Same question for COc1c2c(c3ccccc3c1O)C1C=CC2C1 (stereo unspecified) please.
Out: inactive

In: Then what about the molecule Cc1ccc(F)c2c(=O)cc(-c3ccccc3)[nH]c12 ?
Out: inactive

In: Further, for CCOC(=O)[C@@]12NN=N[C@@H]1[C@H]1CO[C@H](c3ccccc3)N1C2=O ?
Out: inactive

In: Could you do the same for CC(C)[Si](OC1=CCC[C@H]2NC(=O)[C@@H](Cc3ccc([N+](=O)[O-])cc3)[C@@]12C)(C(C)C)C(C)C , please?
Out: inactive

In: Similarly, O=c1[nH]c(=O)n(C2CC(O)C(CO)O2)cc1C#Cc1cc(F)cc(F)c1 (stereo unspecified) ?
Out: inactive

In: Entry to check: COc1ccc(-c2c3c(nc4[nH]c(=S)[nH]c(=S)c24)CCCC3)cc1OC
Out: inactive

In: Check COc1ccc(CC#C/C=C/C(=O)NCC(C)C)cc1 too.
Out: inactive

In: Cool, now O=c1[nH]c(=S)[nH]cc1CN1CCOCC1
Out: inactive

In: Another molecule: CCN(CC)CCNC(=O)c1cn2c(ccc3sc4ccccc4c(=O)c32)n1
Out: inactive

In: Would you mind doing Cn1c(=O)n(CC(Br)CBr)c(=O)n(CC(Br)CBr)c1=O (stereo unspecified) as well?
Out: inactive

In: What would you report for CN(C)CCCC12CCCCC1=Nc1ccccc12 (stereo unspecified) ?
Out: inactive

In: Do the same for Cc1ccc(-n2cc(-c3ccc(Cl)cc3)c(C#N)c2N)cc1 please
Out: inactive

In: Next record, please: O=C1C[C@H](c2ccc(O)c(O)c2)Oc2cc(O)cc(O)c21
Out: inactive

In: // same read-out, input: O=C1/C(=C/c2ccc(O)cc2)CCCC1CN1CCCCC1 (stereo unspecified)
Out: inactive

###

test system: EKVX; assay: NCI tumour cell line growth inhibition, 48 h
The source made the active and inactive calls. Rule as the data show it: active = GI50 up to about 1.1 µM and inactive = higher. Numbered stars: 1 amine (or outer) side, 2 acyl side, 3 side chain; on linkers, the order of the positions; unused ones are H or OH. Bridge positions count the residues as written; N and C are the ends. Square brackets hold non-standard residues; d marks the D form. Peptide text beside a SMILES is read from it. I, II: the chains in the order shown. Actinocin(9to1) = Cc1c2oc3c(C)ccc(C(=O)[*:1])c3nc-2c(C(=O)[*:2])c(N)c1=O; X48 = O=C1CC(C(=O)[*:2])N([*:1])C1; NMeV = CN[CH](C(=O)O)C(C)C; Sar = CNCC(=O)O
One label from this list, please: active, inactive

Look over these answered cases.
N#Cc1c(N2CCC(O)C2)c2ccccc2n2c1nc1ccccc12 (configuration not stated) ... inactive
CCOC(=O)c1cc(C2CCN(CC(C)CC)C2=S)c(C(=O)/C=C(/C)N)[nH]1 (configuration not stated) ... inactive
Cc1ccc(-n2cc(-c3ccc(Cl)cc3)c(C#N)c2N)cc1 ... inactive
CN(C)CCCNc1ccc2nnn3c4ccc(OC(=O)c5ccc([N+](=O)[O-])cc5)cc4c(=O)c1c23 ... inactive
Cc1c2oc3c(C)ccc(C(=O)NC4C(=O)NC(C(C)C)C(=O)N5CC(=O)CC5C(=O)N(C)CC(=O)N(C)C(C(C)C)C(=O)OC4C)c3nc-2c(C(=O)NC2C(=O)NC(C(C)C)C(=O)N3CC(=O)CC3C(=O)N(C)CC(=O)N(C)C(C(C)C)C(=O)OC2C)c(N)c1=O (configuration not stated) (I: TV[X48][Sar][NMeV] / II: TV[X48][Sar][NMeV]; ester I:1-I:C, II:1-II:C; linker I:N-II:N via Actinocin(9to1); configuration not given here) ... active
COc1cc(S(=O)(=O)Nc2ccc(-c3csc(/N=C\c4cccc(Oc5ccccc5)c4)n3)cc2)ccc1Cl ... inactive

Now for a further compound.
In: Which result was noted for this compound in the test: O=C(Nn1c(-c2ccccc2)nc2ccccc2c1=O)c1ccc([N+](=O)[O-])cc1
Out: inactive
